Biological target: T1, His-tagged cynomolgus monkey TSLP antigen (cynoTSLP-His) (cynomolgus monkey)
T1 construct: whole entry named
T1 chain: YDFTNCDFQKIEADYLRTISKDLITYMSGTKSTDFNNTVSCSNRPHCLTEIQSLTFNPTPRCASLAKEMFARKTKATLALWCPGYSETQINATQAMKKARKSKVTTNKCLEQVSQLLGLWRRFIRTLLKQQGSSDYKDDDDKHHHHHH
Experiment: Biacore T200, antibody captured on Protein A chip, antigen in flow, 1:1 Langmuir
Give Kd for every item shown.
One number for each entry, in nM.

• hu3-13 (antibody, human IgG1, kappa, V domains shown, IgG1-YTE, kappa; also called hu3VH2-H110Y + hu3VL6) VH: EVQLVQSGAEVKKPGASVKVSCKASGYTFTDDYMNWVRQAPGQRLEWMGIISPYNGGTSYNQKFKGRVTLTVDKSASTAYMELSSLRSEDTAVYYCAREDYDYDGYAMDYWGQGTTVTVSS VL: EIVLTQSPATLSLSPGERATLSCRASSSVSYMHWYQQKPGQAPRPWIYATSNLASGVPARFSGSGSGTSYTLTISRLEPEDFAVYYCQQSDSGREFGGGTKVEIKR = 0.34
• hu199-36 (antibody, human IgG1, kappa, V domains shown, IgG1-YTE, kappa) VH: EVQLVQSGAEVKKPGASVKVSCKASGYTFTTYWMHWVKQAPGQGLEWMGMIDPSDSETTLIQKFKDKVTLTVDKSTSTAYMELSSLRSEDTAVYYCARTLDGYYDYWGQGTTVTVSS VL: DIQMTQSPSSLSASVGDRVTITCRASENIYSYLAWYQQKPGKSPQLLVYFAKTLAEGVPSRFSGSVSGTQFTLTISSLQPEDFATYYCQHHYGTPWTFGGGTKVEIKR = 0.0172
• AMG157 (tezepelumab, anti-TSLP antibody) (antibody, human IgG2, lambda, V domains shown, positive control) VH: QMQLVESGGGVVQPGRSLRLSCAASGFTFRTYGMHWVRQAPGKGLEWVAVIWYDGSNKHYADSVKGRFTITRDNSKNTLNLQMNSLRAEDTAVYYCARAPQWELVHEAFDIWGQGTMVTVSS VL: SYVLTQPPSVSVAPGQTARITCGGNNLGSKSVHWYQQKPGQAPVLVVYDDSDRPSWIPERFSGSNSGNTATLTISRGEAGDEADYYCQVWDSSSDHVVFGGGTKLTVLG = 0.00922

[in] What value of Kd has been recorded for this entry: hu119-30 (antibody, human IgG1, kappa, V domains shown, IgG1-YTE, kappa; also called hu119VH8 + hu119VL6-N31S) VH: EAQLVQSGAEVKKPGSSVKVSCKASGFTFSTYNMHWVRQAPGQGLEWIGAIYPGNGETSYNQKFKDRATLTVDKSTRTAYMELSSLRSEDTAVYYCAREDDYGEGYFDVWGQGTTVTVSS VL: DIVLTQSPATLSLSPGERATLSCRASESVDSSGLSFMHWYQQKPGQPPRLLLYRASNLGSGIPARFSGSGSGTDFTLTISSLEPEDFAVYYCQQINTDPLTFGQGTKLEIKR
[out] 1.95
